Reference source: patent US20250042994A1

# SUBJECT OF TEST: T1, Human CD19-his protein (human, UniProt P15391 20-291)
# T1 construct: bought protein; also called human CD19 protein; recombinant human CD19-His; not shown: His tag
# T1 sequence (looked up): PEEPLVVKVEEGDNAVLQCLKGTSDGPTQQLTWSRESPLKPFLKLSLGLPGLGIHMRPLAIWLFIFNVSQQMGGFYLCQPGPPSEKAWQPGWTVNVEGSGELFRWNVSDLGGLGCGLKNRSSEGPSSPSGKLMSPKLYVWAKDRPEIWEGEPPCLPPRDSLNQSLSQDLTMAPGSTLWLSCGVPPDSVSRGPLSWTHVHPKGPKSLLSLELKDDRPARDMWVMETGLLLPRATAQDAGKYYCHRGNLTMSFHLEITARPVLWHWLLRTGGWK
# RUN DESCRIPTION: ELISA on coated human CD19-His
EC50 (read off the curve): recorded values

[[record]]
binder = "F4.78.1 (antibody, human IgG1, V domains shown, human-murine chimeric antibody, human IgG1) VH: QVQIQQSGAELARPGASVKLSCKASGYTFTNYWMQWIKQRPGQGLEWIGAIYPGDGDTRYTQKFKGKATLTADKSSSTAYMQLSSLASEDSAVYYCAREEVWSPYGMDYWGQGTSVTVSS VL: QIVLTQSPAIMSASPGEKVTITCSASSSVSYMGWFQQKPGTSPKLWIYSTSNLASGVPARFSGSGSGTSYSLTISRMEAEDAATYYCQQRSIYPLTFGAGTKLELK"
result_type = "EC50 (read off the curve)"
reported = "~0.07 nM"

[[record]]
binder = "F4.125.12 (antibody, human IgG1, V domains shown, human-murine chimeric antibody, human IgG1) VH: EVKLVESGGGLVQPGGSLKLSCAASGFTFSTYTMSWVRQTPEKRLEWVAFISSGGGHINYPDTVKGRFTISRDNAKNTLYLQMSSLKSEDTAMYYCARHSYWFFDVWGAGTTVTVSS VL: DVQITQSPSYLAASPGETITINCRASKNIDTYLAWYQEKPGKTNKLLIYSGSTLQSGIPSRFRGGGSGTDFTLTICSLEPEDFAMYYCQQHNEYPLTFGAGTKLELK"
result_type = "EC50 (read off the curve)"
reported = "~0.06 nM"


Consider the additional binder presented here.
I would be grateful if you could share the reported EC50 (read off the curve) for F5.3.6 (antibody, human IgG1, V domains shown, human-murine chimeric antibody, human IgG1) VH: DVQLQESGPGLVKPSQSQSLTCSVTGYSITSGYYWNWIRQFPGNKLEWMGYISYDGSNNYNPSLKNRISITRDTSKNQFFLKLNSVTTEDTVTYYCARAPLTGDRYWYFDVWGTGTTVTVSS VL: DIVLTQSPASLAVSLGQRATISCRASQSVSTSSYSYMHWYQQKPGQTPKLLIKYASNLKSGVPARFSGSGSGTDFTLNIHPVEEEDTATYYCQHSWEIPPTFGGGTKLEIK . ~0.4 nM
